Assign Events with <20% injury to each entry below.
Tested on: transgenic soybean plants
Measurement Notes: R0 soybean 2,4-D spray test of 2,4-D optimized variants
Assay type: in vivo
Measurement Context: 2,4-D rate 2X (1.5 lb ae/acre); single copy R0 soy; seven days after application
One number for each entry.

# Molecule, Readout Value
data = [
    ("MON-HT13: engineered oxygenase protein, amino acid sequence SEQ ID NO:47 (protein) MHAALTPLTNKYRFIDVQPLTGVLGAEITGVDLREPLDDSTWNEILDAFHTYQVIYFPGQAITNEQHIAFSRRFGPVDPVPILKSIEGYPEVQMIRREANESSRYIGDDWHADSTFLDAPPAAVVMRAIEVPEYGGDTGFLSMYSAWETLSPTMQATIEGLNVVHSATKVFGSLYQATNWRFSGTSVKVMDVDAGDRETVHPLVVTHPVTGRRALYCNQVYCQKIQGMTDAESKSLLQFLYEHATQFDFTCRVRWKKDQVLVWDNLCTMHRAVPDYAGKFRYLTRTTVAGDKPSR", 12),
    ("MON-HT18: engineered oxygenase protein, amino acid sequence SEQ ID NO:52 (protein) MHAALTPLTNKYRHIDVQPLTGVLGAEITGVDLREPLDDSTWNEILDAFHTYQVIYFPGQAITNEQHIAFSRRFGPVDPVPILKSIEGYPEVQMIRREANESSRYIGDDWHADSTFLDAPPAAVVMRAIEVPEYGGDTGFLSMYSAWETLSPTMQATIEGLNVVHSATKVFGSLYQATNWRFSNTSVKVMDVDAGDRETVHPLVVTHPVTGRRALYCNQVYCQKIQGMTDAESKSLLQFLYEHATQFDFTCRVRWKKDQVLVWDNLCTMHRAVPDYAGKFRYLTRTTVAGDKPSR", 11),
]

Here's the next entry for you.
Tell us which Events with <20% injury value is on record for MON-HT17: engineered oxygenase protein, amino acid sequence SEQ ID NO:51 (protein) MHAALTPLTNKYRFIDVQPLTGVLGAEITGVDLREPLDDSTWNEILDAFHTYQVIYFPGQAITNEQHIAFSRRFGPVDPVPILKSIEGYPEVQMIRREANESSRYIGDDWHADSTFLDAPPAAVVMRAIEVPEYGGDTGFLSMYSAWETLSPTMQATIEGLNVVHSATKVFGSLYQATNWRFSNTSVKVMDVDAGDRETVHPLVVTHPVTGRRALYCNQVYCQKIQGMTDAESKSLLQFLYEHATQFDFTCRVRWKKDQVLVWDNLCTMHRAVPDYAGKFRYLTRTTVAGDKPSR
12

Each recorded value in this set is attributed to patent US12723255B2.
